Target: human TYRO3 (455-end) (Homo sapiens)
Construct: TYRO3 (455-end); purchased SignalChem, Canada
Sequence (Q06418 455-890 limits assumed): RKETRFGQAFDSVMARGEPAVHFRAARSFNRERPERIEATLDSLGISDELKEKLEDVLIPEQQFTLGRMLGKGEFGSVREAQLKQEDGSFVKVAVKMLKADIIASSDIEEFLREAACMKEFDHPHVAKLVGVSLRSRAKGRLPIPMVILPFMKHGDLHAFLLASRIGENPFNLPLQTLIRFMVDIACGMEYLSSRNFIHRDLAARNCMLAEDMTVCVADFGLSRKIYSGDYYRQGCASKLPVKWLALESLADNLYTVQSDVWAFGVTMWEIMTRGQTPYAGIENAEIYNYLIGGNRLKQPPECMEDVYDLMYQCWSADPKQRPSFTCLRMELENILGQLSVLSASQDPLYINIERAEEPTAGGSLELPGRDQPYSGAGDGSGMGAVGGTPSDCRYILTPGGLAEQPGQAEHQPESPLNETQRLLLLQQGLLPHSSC
Assay: HTRF kinase activity biochemical assay, TYRO3
Conditions: 10 μM ATP, 30 minutes pre-incubation; read-out: HTRF TYRO IC50
IC50 overview

Given the molecule Cn1cc(-c2cnc(N)c(C(=O)N[C@H]3CCC[C@@H]3OCc3ccc(-c4ccc5c(C6CCN(CCO)CC6)cn(C)c5c4)cc3)c2)cn1 [Example 26] , what is its reported IC50?
> 1000 nM

Would you kindly repeat that for CC1(C)CC(N2CCN(CCO)CC2)c2ccc(-c3ccc(CO[C@H]4CCC[C@@H]4NC(=O)c4cc(C(F)(F)F)cnc4N)cc3)cc21 (stereo partly drawn) [Example 130] ?
100 to 1000 nM

// repeat for Nc1ncc(-c2ccc(F)nc2)cc1C(=O)N[C@H]1COC[C@@H]1OCc1ccc(-c2ccc3c(c2)CCC3N2CCN(CCO)CC2)cc1 (stereo partly drawn) [Example 20] and report
> 1000 nM
